Origin of measurements: ChEMBL document CHEMBL1132932

Form field: inhibition (one value per entry).
assay-target: Peptidyl-prolyl cis-trans isomerase A (Homo sapiens)
assay-remarks: % inhibition of competitive binding, at 500 uM, against human Peptidyl-prolyl isomerase
Sequence (P62937 whole entry, looked up): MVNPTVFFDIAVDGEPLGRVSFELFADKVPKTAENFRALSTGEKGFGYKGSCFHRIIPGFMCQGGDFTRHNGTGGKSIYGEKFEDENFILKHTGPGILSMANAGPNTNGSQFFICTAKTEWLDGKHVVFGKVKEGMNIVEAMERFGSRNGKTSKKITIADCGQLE
Non-standard residues stand in square brackets, D forms with d. Residues, ends and D or L forms follow the SMILES beside them. *: point of attachment. Isovaleryl = CC(C)CC(=O)*; Ac5c = NC1(C(=O)O)CCCC1; Aib = CC(C)(N)C(=O)O; NHBn = c1ccc(CN*)cc1

{"compound": "CC[C@H](C)[C@H](NC(=O)[C@@H]1CCCN1C(=O)CNC(=O)[C@H](C)NC(=O)CCc1c[nH]cn1)C(=O)N[C@H](C)C(N)=O", "inhibition": "20%"}
{"compound": "CC(C)CC(=O)N[C@@H](Cc1c[nH]cn1)C(=O)NC(C)(C)C(=O)NCC(=O)N1CCC[C@H]1C(=O)NC1(C(=O)NCc2ccccc2)CCCC1 (Isovaleryl-H[Aib]GP[Ac5c]-NHBn)", "inhibition": "50%"}
{"compound": "CC(=O)N[C@H](C(=O)N[C@@H](Cc1c[nH]cn1)C(=O)N[C@@H](C)C(=O)NCC(=O)N1CCC[C@H]1C(=O)N[C@@H](CCC(N)=O)C(=O)N[C@H](C)C(N)=O)C(C)C", "inhibition": "15%"}

---

assay-target: Peptidyl-prolyl cis-trans isomerase A (Homo sapiens, UniProt P62937)
Non-standard residues stand in square brackets, D forms with d. Residues, ends and D or L forms follow the SMILES beside them. *: point of attachment. Isovaleryl = CC(C)CC(=O)*; Ac5c = NC1(C(=O)O)CCCC1; Aib = CC(C)(N)C(=O)O; NHBn = c1ccc(CN*)cc1
Form field: log10 of IC50 (one value per entry).
measured-parameter: log10 of IC50 (log10 of the value in µM)

{"compound": "CC(=O)N[C@H](C(=O)N[C@@H](Cc1cnc[nH]1)C(=O)N[C@@H](C)C(=O)NCC(=O)N1CCC[C@H]1C(=O)NC1(C(=O)N[C@@H](C)C(N)=O)CCCC1)C(C)C (Ac-VHAGP[Ac5c]A-NH2)", "assay-target": "Peptidyl-prolyl cis-trans isomerase A (Homo sapiens, UniProt P62937)", "log10 of IC50": 2.83}
{"compound": "CC[C@H](C)[C@H](NC(=O)[C@@H]1CCCN1C(=O)CNC(=O)C(C)(C)NC(=O)[C@H](Cc1c[nH]cn1)NC(=O)[C@@H](NC(C)=O)C(C)C)C(=O)N[C@@H](C)C(N)=O", "assay-target": "Peptidyl-prolyl cis-trans isomerase A (Homo sapiens, UniProt P62937)", "log10 of IC50": 2.88}
{"compound": "CC[C@H](C)[C@H](NC(=O)[C@@H]1CCCN1C(=O)CNC(=O)[C@H](C)NC(=O)[C@H](Cc1c[nH]cn1)NC(C)=O)C(=O)NCc1ccccc1 (Ac-HAGPI-NHBn)", "assay-target": "Peptidyl-prolyl cis-trans isomerase A (Homo sapiens, UniProt P62937)", "log10 of IC50": 2.45}
{"compound": "CC(C)CC(=O)N[C@@H](Cc1c[nH]cn1)C(=O)NC(C)(C)C(=O)NCC(=O)N1CCC[C@H]1C(=O)NC1(C(=O)NCc2ccccc2)CCCC1 (Isovaleryl-H[Aib]GP[Ac5c]-NHBn)", "assay-target": "Peptidyl-prolyl cis-trans isomerase A (Homo sapiens, UniProt P62937)", "log10 of IC50": 2.70}
{"compound": "CC[C@H](C)[C@H](NC(=O)[C@@H]1CCCN1C(=O)CNC(=O)[C@H](C)NC(=O)[C@H](Cc1cnc[nH]1)NC(=O)CC(C)C)C(=O)NCc1ccccc1 (Isovaleryl-HAGPI-NHBn)", "assay-target": "Peptidyl-prolyl cis-trans isomerase A (Homo sapiens, UniProt P62937)", "log10 of IC50": 0.78}
{"compound": "CC[C@H](C)[C@H](NC(=O)[C@@H]1CCCN1C(=O)CNC(=O)[C@H](C)NC(=O)[C@H](Cc1c[nH]cn1)NC(=O)[C@@H](N)C(C)C)C(=O)N[C@@H](C)C(N)=O", "assay-target": "Peptidyl-prolyl cis-trans isomerase A (Homo sapiens, UniProt P62937)", "log10 of IC50": 3.32}
{"compound": "CC[C@H](C)[C@H](NC(=O)[C@@H]1CCCN1C(=O)CNC(=O)[C@H](C)NC(=O)[C@H](Cc1c[nH]cn1)NC(=O)[C@@H](NC(C)=O)C(C)C)C(=O)NCc1ccccc1 (Ac-VHAGPI-NHBn)", "assay-target": "Peptidyl-prolyl cis-trans isomerase A (Homo sapiens, UniProt P62937)", "log10 of IC50": 2.06}

---

assay-target: Peptidyl-prolyl cis-trans isomerase A (Homo sapiens)
assay-remarks: 50% inhibitory concentration of competitive binding against human Peptidyl-prolyl isomerase activity using uncoupled assay
Sequence (P62937 whole entry): as the sequence (P62937 whole entry, looked up) above
pIC50: −log10 of the molar value.

{"substance": "Ac-VQAGPIA-NH2", "pIC50": 2.60}

---

assay-target: Peptidyl-prolyl cis-trans isomerase A (Homo sapiens)
assay-remarks: % inhibition of competitive binding, at 500 uM, against human Peptidyl-prolyl isomerase
Residues, ends and D or L forms follow the SMILES beside them. *: point of attachment. Isovaleryl = CC(C)CC(=O)*; NHBn = c1ccc(CN*)cc1
Classify as follows. Reported inhibition greater than or equal to 20%: MET. Reported inhibition below: NOT MET.

{"compound": "CC(=O)N[C@H](C(=O)N[C@@H](Cc1c[nH]cn1)C(=O)N[C@@H](C)C(=O)NCC(=O)N1CCC[C@H]1C(=O)N[C@@H](C(=O)N[C@H](C)C(N)=O)c1ccccc1)C(C)C", "assay-target": "Peptidyl-prolyl cis-trans isomerase A (Homo sapiens)", "label-class": "MET"}
{"compound": "CC[C@H](C)[C@H](NC(=O)[C@@H]1CCCN1C(=O)CNC(=O)[C@H](C)NC(=O)[C@H](Cc1c[nH]cn1)NC(=O)CC(C)C)C(=O)N[C@H](C)C(N)=O", "assay-target": "Peptidyl-prolyl cis-trans isomerase A (Homo sapiens)", "label-class": "MET"}
{"compound": "CC[C@H](C)[C@H](NC(=O)[C@@H]1CCCN1C(=O)CNC(=O)[C@H](C)NC(=O)[C@H](Cc1c[nH]cn1)NC(=O)[C@@H](N)C(C)C)C(=O)N[C@H](C)C(N)=O", "assay-target": "Peptidyl-prolyl cis-trans isomerase A (Homo sapiens)", "label-class": "NOT MET"}
{"compound": "CC(=O)N[C@H](C(=O)N[C@@H](Cc1c[nH]cn1)C(=O)N[C@@H](C)C(=O)NCC(=O)N1CCC[C@H]1C(=O)N[C@H](C(=O)N[C@H](C)C(N)=O)c1ccccc1)C(C)C", "assay-target": "Peptidyl-prolyl cis-trans isomerase A (Homo sapiens)", "label-class": "MET"}
{"compound": "CC[C@@H](C)[C@@H](NC(=O)[C@@H]1CCCN1C(=O)CNC(=O)[C@H](C)NC(=O)[C@H](Cc1c[nH]cn1)NC(=O)[C@@H](NC(C)=O)C(C)C)C(=O)N[C@H](C)C(N)=O", "assay-target": "Peptidyl-prolyl cis-trans isomerase A (Homo sapiens)", "label-class": "NOT MET"}
{"compound": "CC(=O)N[C@H](C(=O)N[C@@H](Cc1c[nH]cn1)C(=O)N[C@@H](C)C(=O)NCC(=O)N1CCC[C@H]1C(=O)NCC(=O)N[C@H](C)C(N)=O)C(C)C", "assay-target": "Peptidyl-prolyl cis-trans isomerase A (Homo sapiens)", "label-class": "MET"}
{"compound": "CC[C@H](C)[C@H](NC(=O)[C@@H]1CCCN1C(=O)CNC(=O)[C@H](C)NC(=O)[C@H](Cc1c[nH]cn1)NC(C)=O)C(=O)NCc1ccccc1 (Ac-HAGPI-NHBn)", "assay-target": "Peptidyl-prolyl cis-trans isomerase A (Homo sapiens)", "label-class": "MET"}
{"compound": "CC[C@H](C)[C@H](NC(=O)[C@@H]1CCCN1C(=O)CNC(=O)[C@H](C)NC(=O)[C@H](Cc1c[nH]cn1)NC(=O)CC(C)C)C(=O)NCc1ccccc1 (Isovaleryl-HAGPI-NHBn)", "assay-target": "Peptidyl-prolyl cis-trans isomerase A (Homo sapiens)", "label-class": "MET"}
{"compound": "CC[C@H](C)[C@H](NC(=O)[C@@H]1CCCN1C(=O)CNC(=O)[C@H](C)NC(=O)[C@@H](N)Cc1c[nH]cn1)C(=O)N[C@H](C)C(=O)O", "assay-target": "Peptidyl-prolyl cis-trans isomerase A (Homo sapiens)", "label-class": "NOT MET"}

---

Entries with reported IC50 on Peptidyl-prolyl cis-trans isomerase A (Homo sapiens)
Non-standard residues stand in square brackets, D forms with d. Residues, ends and D or L forms follow the SMILES beside them. *: point of attachment. Desaminohistidyl = O=C(CCc1c[nH]cn1)*; Isovaleryl = CC(C)CC(=O)*; Api = NC1(C(=O)O)CCNCC1; Aib = CC(C)(N)C(=O)O; NHBn = c1ccc(CN*)cc1

{"compound": "CC[C@H](C)[C@H](NC(=O)[C@@H]1CCCN1C(=O)CNC(=O)[C@H](C)NC(=O)CCc1cnc[nH]1)C(=O)NCc1ccccc1 (Desaminohistidyl-AGPI-NHBn)", "IC50": "> 10 mM"}
{"compound": "CC(=O)N[C@H](C(=O)N[C@@H](Cc1c[nH]cn1)C(=O)N[C@@H](C)C(=O)NCC(=O)N1CCC[C@H]1C(=O)NC1(C(=O)N[C@@H](C)C(N)=O)CCNCC1)C(C)C (Ac-VHAGP[Api]A-NH2)", "IC50": "> 10 mM"}
{"compound": "CC[C@H](C)[C@H](NC(=O)[C@@H]1CCCN1C(=O)CNC(=O)C(C)(C)NC(=O)[C@H](Cc1cnc[nH]1)NC(=O)CC(C)C)C(=O)NCc1ccccc1 (Isovaleryl-H[Aib]GPI-NHBn)", "IC50": "> 10 mM"}
